Catalogue of compounds with associated TGI
test system: MCF7 breast; test: NCI tumour cell line growth inhibition, 48 h
// note: answer is a bare numeric in µM

Examples from the recorded data:
Q. Return reported TGI; argument: O=C(Nc1ccc(Cl)cc1F)c1ccccc1O
A. 12.6

Q. Return reported TGI; argument: N#CC(=C1C=CC(=NO)C=C1)c1ccccc1
A. 11.6

Next:
Q. Return reported TGI; argument: CC(C)CC1C(=O)NCCC(NC(=O)C(Cc2ccc(OC(C)(C)C)cc2)NC(=O)OC(C)(C)C)C(=O)NC(Cc2ccccc2)C(=O)NC(Cc2ccccc2)NC1=O (stereo not given)
A. 52.3

Q. Return reported TGI; argument: FC(F)(F)c1ccc(N=C/C=C(/Nc2ccc(C(F)(F)F)cc2)c2ccc(Cl)cc2)cc1
A. 48

Q. Return reported TGI; argument: N#Cc1c(NN)n(C2OC(CO)C(O)C2O)c2ncnc(N)c12 (stereo not given)
A. 2.87

* * *

tested on: K-562 leukemia; test: NCI tumour cell line growth inhibition, 48 h; in the data active means GI50 below about 0.43 µM; inactive means the rest
In this exercise, the only acceptable responses are label 1 (active), label 0 (inactive)

Example entries and their recorded answers appear below.
Q. Dear all, I need the recorded test outcome for CCC[CH2][Sn]1([CH2]CCC)[O]N=C(c2ccccc2)C(c2ccccc2)[O]1 (stereo unspecified) , thank you.
A. label 1

Q. Dear all, I need the recorded test outcome for CC(C)CCN1c2nc(Nc3cc(F)c(O)c(F)c3)ncc2N(C)C(=O)C1C (stereo unspecified) , thank you.
A. label 0

Q. Dear all, I need the recorded test outcome for COc1ccc(-n2cc(-c3cc(OC)c(OC)c(OC)c3)c(C(=O)C(F)(F)F)c2C)cc1 , thank you.
A. label 0

Q. Dear all, I need the recorded test outcome for O=C(Nc1ccc(Cl)cc1F)c1ccccc1O , thank you.
A. label 0

Next:
Q. Dear all, I need the recorded test outcome for CCN(CC)c1ccc2c(c1)OC(N)=C(C#N)C2c1cc(OC)c2c(c1)OCO2 (stereo unspecified) , thank you.
A. label 1

Q. Dear all, I need the recorded test outcome for CCn1c(-c2nonc2N)nc2c(C#CC(C)(C)O)nc(OC[C@H](N)c3ccccc3)cc21 , thank you.
A. label 0

Q. Dear all, I need the recorded test outcome for CC(C)c1ccc2c(c1)CC[C@@H]1[C@@](C)(C(=O)O)CCC[C@]21C , thank you.
A. label 0

Q. Dear all, I need the recorded test outcome for N#Cc1c(NN)n(C2OC(CO)C(O)C2O)c2ncnc(N)c12 (stereo unspecified) , thank you.
A. label 1

Q. Dear all, I need the recorded test outcome for N#CC(=C1C=CC(=NO)C=C1)c1ccccc1 , thank you.
A. label 0

Q. Dear all, I need the recorded test outcome for CCN1CCN(C(c2ccc(C(F)(F)F)cc2)c2ccc3cccnc3c2O)CC1 (stereo unspecified) , thank you.
A. label 0

Q. Dear all, I need the recorded test outcome for O=C(Cc1ccc(/C=C/C(=O)c2ncc[nH]2)cc1)Nc1cc(F)c(F)c(F)c1 , thank you.
A. label 0

* * *

test system: SF-268 CNS; test: NCI tumour cell line growth inhibition, 48 h; in the data active = GI50 below about 0.43 µM; inactive = the rest
In this exercise, the only acceptable responses are active, inactive

Q. Dear all, I need the recorded test outcome for CCCCCCCCCCCCCC1=NC(C)(C)CN1C(C)C , thank you.
A. inactive

Q. Dear all, I need the recorded test outcome for CCOC(=O)CCCn1c(SC)nc2[nH]cc(-c3ccccc3)c2c1=O , thank you.
A. inactive

Q. Dear all, I need the recorded test outcome for CCN(CC)c1ccc2c(c1)OC(N)=C(C#N)C2c1cc(OC)c2c(c1)OCO2 (stereo unspecified) , thank you.
A. active

Q. Dear all, I need the recorded test outcome for OC[C@H]1C[C@](O)(c2ccc(Cl)cc2)[C@@H](c2ccc(Cl)cc2)O1 , thank you.
A. inactive

Next:
Q. Dear all, I need the recorded test outcome for O=C(Cc1ccc(/C=C/C(=O)c2ncc[nH]2)cc1)Nc1cc(F)c(F)c(F)c1 , thank you.
A. inactive

Q. Dear all, I need the recorded test outcome for Cc1cc(I)cc(CN(C)CCCN2CCCCCCC2)c1O , thank you.
A. inactive

* * *

system: HCT-116 colon; experiment: NCI tumour cell line growth inhibition, 48 h
Catalogue of molecules with associated TGI

Q. // fetch HCT-116 colon TGI for Cc1cc(C)n2nc3nc(N)c(C#N)c(-c4ccccc4)c3c2n1
A. > 100 µM

* * *

Catalogue of molecules with associated TGI
system: MALME-3M melanoma; assay: NCI tumour cell line growth inhibition, 48 h

Q. Return reported TGI; argument: O=c1cnn(C/C=C/CBr)c(=O)[nH]1
A. 32 µM

Q. Return reported TGI; argument: COC(=O)c1cc2c3c(ccc2[nH]1)N(C(=O)c1cc2cc(OC)c(OC)c(OC)c2[nH]1)CC3CCl (stereo unspecified)
A. > 100 µM

Q. Return reported TGI; argument: C=COCCCOc1ccccc1
A. > 100 µM

Q. Return reported TGI; argument: C[N+](CCCl)(CCCl)Cc1cccc2cccc([N+](=O)[O-])c12
A. > 100 µM

Q. Return reported TGI; argument: O=C(NCC(=O)N1CCCC1C(=O)OC(=O)C1CCCN1C(=O)CNC(=O)OCc1ccccc1)OCc1ccccc1 (stereo unspecified)
A. 64.8 µM

Q. Return reported TGI; argument: COc1cc(/C=C2\C[C@H]3[C@@H]4CCc5cc(O)ccc5[C@H]4CC[C@]3(C)C2=O)cc(OC)c1OC
A. 13.4 µM

Next:
Q. Return reported TGI; argument: CNC(C#N)c1ccc(OC)cc1 (stereo unspecified)
A. > 100 µM

Q. Return reported TGI; argument: O=C(O)CC1NC(/C(=C/c2ccccc2)NC(=O)c2ccccc2)OC1=O (stereo unspecified)
A. > 100 µM

Q. Return reported TGI; argument: O=c1c2sc(=S)n(-c3ccc(F)cc3)c2ncn1Cc1ccc(F)cc1F
A. > 100 µM

Q. Return reported TGI; argument: N=C1/C(=C/c2ccc(F)cc2)C(=O)N=C2SC=NN12
A. > 100 µM

Q. Return reported TGI; argument: CCCCS(=O)CCC(N)P(=O)(O)O (stereo unspecified)
A. > 100 µM

* * *

Catalogue of compounds with associated TGI
tested on: MDA-N; experiment: NCI tumour cell line growth inhibition, 48 h

Q. Return reported TGI; argument: NC(=O)NC1C(c2ccccc2)=C1c1ccccc1
A. 34.4 µM

Q. Return reported TGI; argument: O=C(O)CC(CC(=O)O)C(=O)O
A. > 100 µM

Q. Return reported TGI; argument: CC(=O)c1ccc(NCc2cc(O)ccc2O)cc1
A. 43.5 µM

Q. Return reported TGI; argument: CCOC(=O)c1c(-c2ccc(OC)cc2)c(C#N)c(=S)n(C2OC(COC(C)=O)C(OC(C)=O)C(OC(C)=O)C2OC(C)=O)c1-c1ccccc1 (stereo unspecified)
A. > 100 µM

Q. Return reported TGI; argument: CN(Cc1cnc2nc(N)nc(N)c2n1)c1ccc(C(=O)NC(CCC(=O)NCCC(P(=O)(O)O)P(=O)(O)O)C(=O)O)cc1 (stereo unspecified)
A. > 100 µM

Q. Return reported TGI; argument: NC(=Nc1c([N+](=O)[O-])cnc2ccccc12)N1CCOCC1
A. > 100 µM

Q. Return reported TGI; argument: Oc1c(C2=NNC(c3ccc(Cl)cc3Cl)C2)ccc2ccccc12 (stereo unspecified)
A. 55.5 µM

Q. Return reported TGI; argument: CN(CC(=O)O)c1ncc2c(n1)-c1ccccc1SC2
A. > 100 µM

Q. Return reported TGI; argument: CC(=O)Nc1ccc(N2C(=O)/C(=C\c3cccc(Oc4ccccc4)c3)S(=O)(=O)C2c2ccccc2)cc1 (stereo unspecified)
A. 95.3 µM

Q. Return reported TGI; argument: O=C(O)CCC(=O)c1ccc[nH]1
A. > 100 µM

Next:
Q. Return reported TGI; argument: CN1CCN(C(=O)CCNC(=O)Cc2ccc(C(=O)c3ccccc3)cc2)CC1
A. 71.5 µM

Q. Return reported TGI; argument: OC1[C@@H]2[C@@H](O)[C@H](O)[C@@H](O)N2C[C@@H]1O (stereo partly specified)
A. > 100 µM

Q. Return reported TGI; argument: CC(=O)Nc1ccc(C(=O)NN2C(=O)CSC2c2ccc([N+](=O)[O-])cc2)cc1 (stereo unspecified)
A. > 100 µM

Q. Return reported TGI; argument: COc1cc(C(=O)n2c3ccc(Br)cc3c3nc4ccccc4nc32)cc(OC)c1OC
A. > 100 µM

Q. Return reported TGI; argument: CCOC(=O)c1c(NC(=O)c2cccs2)sc2c1CCCC2
A. > 100 µM

* * *

tested on: SK-MEL-5 melanoma; test: NCI tumour cell line growth inhibition, 48 h
Quantity: TGI (µM)
// note: answer is a bare numeric in µM

Examples from the recorded data:
Q. Return reported TGI; argument: COc1cnc2c(c1)C(=O)c1c-2n(CCCNC(C)C)c(=O)c2cc(Cl)ccc12
A. 2.38

Q. Return reported TGI; argument: Oc1cn(-c2ccc(Cl)cc2)nc1-c1nnc(-c2ccccc2)o1
A. 5.13

Next:
Q. Return reported TGI; argument: CC(=O)c1cccc(NC(=O)C(=O)NNc2n[nH]c(=S)n2N)c1
A. 2.6

Q. Return reported TGI; argument: [Cl][Hg][c]1cc(Br)cc(Br)c1
A. 3.04

Q. Return reported TGI; argument: COc1cc2nc(-c3ccc(Cl)cc3)cc(OCCCN3CCCCC3)c2cc1OC
A. 2.32

Q. Return reported TGI; argument: CCCCc1c(N(C)C)c(OC(C)=O)c(-c2cn(C)c3ccccc23)oc1=O
A. 26.8

Q. Return reported TGI; argument: O=C(O)CC1NC(/C(=C/c2ccccc2)NC(=O)c2ccccc2)OC1=O (configuration not stated)
A. 32.3

Q. Return reported TGI; argument: O/N=C/C1C(OCc2ccccc2)C(OCc2ccccc2)C(OCc2ccccc2)CN1Cc1ccccc1 (configuration not stated)
A. 23.9

Q. Return reported TGI; argument: Cc1c([N+](=O)[O-])ccc2c(NCCCN(C)C)ccnc12
A. 29.6

Q. Return reported TGI; argument: O=C1NC(=O)C(c2cnc3ccccn23)=C1c1cn2c3c(cc(F)cc13)CN(C(=O)N1CCCCC1)CC2
A. 16.8

Q. Return reported TGI; argument: CCC[CH2][Sn]1([CH2]CCC)[O]N=C(c2ccccc2)C(c2ccccc2)[O]1 (configuration not stated)
A. 3.23

Q. Return reported TGI; argument: CCN(CC)CCC(CNc1ccnc2cc(Cl)ccc12)c1ccc(OC)cc1 (configuration not stated)
A. 3.09
